# test protocol: Phase 1 study in subjects with hepatic impairment: pharmacokinetics and protein binding
# Type: in vivo, humans
# Set-up: concentration or dose not given beside the values
# experimental setup: human, plasma, Day 5; mild hepatic impairment; read-out: AUC0-t (Test Group)
# Procedure: Safety and Pharmacokinetics of solithromycin in Subjects with Hepatic Impairment. The safety, pharmacokinetics (PK), and protein binding of solithromycin was evaluated in subjects with mild, moderate, and severe hepatic impairment compared to healthy subjects with normal hepatic function (matched for age, weight, and gender). […] PK parameters on Day 5 were compared between the hepatic impaired cohorts and the control group, and geometric mean ratios were calculated.
measurement name: AUC(0-t)
Reply with the number and its unit after it.

stdin: Given CC[C@H]1OC(=O)[C@@](C)(F)C(=O)[C@H](C)[C@@H](O[C@@H]2O[C@H](C)C[C@H](N(C)C)[C@H]2O)[C@](C)(OC)C[C@@H](C)C(=O)[C@H](C)[C@H]2N(CCCCn3cc(-c4cccc(N)c4)nn3)C(=O)O[C@]12C , state its recorded AUC(0-t).
stdout: 8870 ng·h/mL
